Hello, the source for this data is paper PMC11778240, in case you need it.

- targetUnderTest: PKC-β-I (Homo sapiens)
- Construct: purchased Invitrogen
- Sequence (P05771 whole entry): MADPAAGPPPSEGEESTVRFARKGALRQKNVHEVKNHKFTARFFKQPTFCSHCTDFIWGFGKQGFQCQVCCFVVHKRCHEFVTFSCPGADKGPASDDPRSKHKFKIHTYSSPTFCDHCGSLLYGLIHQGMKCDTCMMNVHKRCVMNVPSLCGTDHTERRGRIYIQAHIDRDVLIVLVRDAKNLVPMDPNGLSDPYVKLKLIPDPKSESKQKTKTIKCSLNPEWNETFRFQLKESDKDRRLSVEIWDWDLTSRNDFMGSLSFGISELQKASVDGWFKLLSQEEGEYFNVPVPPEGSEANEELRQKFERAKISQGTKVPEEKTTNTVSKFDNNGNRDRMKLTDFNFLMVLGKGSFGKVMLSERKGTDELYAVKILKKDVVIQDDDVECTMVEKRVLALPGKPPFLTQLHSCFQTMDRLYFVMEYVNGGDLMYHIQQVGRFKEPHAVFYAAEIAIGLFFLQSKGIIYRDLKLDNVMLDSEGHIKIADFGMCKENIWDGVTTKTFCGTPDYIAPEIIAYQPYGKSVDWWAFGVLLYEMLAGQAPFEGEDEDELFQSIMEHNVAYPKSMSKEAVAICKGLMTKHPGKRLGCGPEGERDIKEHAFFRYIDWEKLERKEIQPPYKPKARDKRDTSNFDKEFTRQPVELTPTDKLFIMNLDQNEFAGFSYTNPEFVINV
- measurementProtocol: Cell-free PKC competition binding assay against 3H-PDBu
- measurementContext: competition against radiolabeled PDBu; Fig. 7A and text; read-out: Ki PKC-β
Quick reference for Ki among some molecules
Report the value in nM with no unit label.

The cases that follow already have their Ki on record.
compoundStructureString	targetUnderTest	resultUnit	resultNumber
C/C=C(\C)C(=O)O[C@@H]1[C@@H](C)[C@]2(O)[C@@H]3C=C(C)[C@H](OC(=O)C=C(C)C)[C@@]3(O)[C@H](O)C(CO)=C[C@H]2[C@@H]2C(C)(C)[C@]12OC(=O)[C@@H](C)CC	PKC-β-I (Homo sapiens)	nM	2.6
C/C=C(\C)C(=O)O[C@@H]1[C@@H](C)[C@]2(O)[C@@H]3C=C(C)C(=O)[C@@]3(O)[C@H](O)C(CO)=C[C@H]2[C@@H]2C(C)(C)[C@]12OC(=O)[C@@H](C)CC	PKC-β-I (Homo sapiens)	nM	0.85

The molecule identified as `C/C=C(\C)C(=O)O[C@@H]1[C@@H](C)[C@@]2(O)[C@H]([C@@H]3C(C)(C)[C@]13OC(=O)[C@H](C)CC)[C@@H]1O[C@]1(CO)[C@@H](O)[C@]1(O)C(=O)C(C)=C[C@H]12` registered its Ki at 2.3
